tested on: CAKI-1 renal; test: NCI-60 one-dose screen, 48 h; details: 10 µM unless noted
About 83,000 compounds went through this panel and 20% of them were active in at least one assay; those are over-represented in the sample as a whole. Calls of active or inactive are those of the source. The calls were made as follows: active = growth percent below 10; inactive = the rest.
Respond using exactly one of the listed classes: 1 = active, 0 = inactive

{"Query smiles": "CC(=O)Oc1ccccc1C(=O)Nc1cc(C(C)C)ccc1C", "Target of assay": "CAKI-1 renal", "Assigned class": 1}
{"Query smiles": "COc1cc(/C=C/C(=O)c2cc(OC)c(OC)c(OC)c2)ccc1Oc1nc(NCCO)nc(N2CCOCC2)n1", "Target of assay": "CAKI-1 renal", "Assigned class": 0}
{"Query smiles": "[Cl][Ru].c1ccc(-c2cc(-c3ccccn3)nc(-c3ccccn3)c2)cc1.c1ccc(-c2ccnc3c2ccc2c(-c4ccccc4)ccnc23)cc1", "Target of assay": "CAKI-1 renal", "Assigned class": 1}
{"Query smiles": "C=CCn1c(SCC(=O)c2ccccc2)nnc1-c1c[nH]c2ccccc12", "Target of assay": "CAKI-1 renal", "Assigned class": 0}
{"Query smiles": "NS(=O)(=O)c1cccc(Nc2nc(SCC(=O)c3ccc(Cl)cc3)nc3ccccc23)c1", "Target of assay": "CAKI-1 renal", "Assigned class": 0}

Now for another entry.
GET /call?item= N#Cc1c(-c2ccc(Cl)cc2)nc(SCc2ccccc2)nc1N1CCNCC1 returns the recorded outcome of this test. 0

---

system: MALME-3M melanoma; test: NCI-60 one-dose screen, 48 h; conditions: 10 µM unless noted
This is part of a sample that, as a whole, favours compounds with a hit. Of some 83,000 tested, about 20% had one in any assay. Active and inactive are the calls of the source. The calls were made as follows: active = growth percent below 10; inactive = the rest.
Respond using exactly one of the listed classes: 1.0 (active), 0.0 (inactive)

See these solved cases before continuing.
{"Compound": "CCCC(=O)NC(c1ccc(N(CC)CC)cc1)c1cc(C)c2cccnc2c1O (stereo not drawn)", "Target of assay": "MALME-3M melanoma", "Assigned class": 0.0}
{"Compound": "COc1ccc(/C=N/NC(=O)c2[nH]c3ccc(Br)cc3c2-c2ccccc2)o1", "Target of assay": "MALME-3M melanoma", "Assigned class": 0.0}
{"Compound": "NS(=O)(=O)c1cccc(Nc2nc(SCC(=O)c3ccc(Br)cc3)nc3ccccc23)c1", "Target of assay": "MALME-3M melanoma", "Assigned class": 0.0}
{"Compound": "C#Cc1nc(C2=C(C)C(=O)/C(=N/OC(C)=O)C2)cs1", "Target of assay": "MALME-3M melanoma", "Assigned class": 0.0}
{"Compound": "OC1CCN(CCCOc2c3ccc(Cl)cc3nc3c2oc2ccc(Cl)cc23)CC1", "Target of assay": "MALME-3M melanoma", "Assigned class": 1.0}

GET /call?item= O=c1[nH]c2ccc(Cl)cc2cc1CSc1ccccc1Nc1nccc(-c2ccc(Cl)cc2)n1 returns the recorded outcome of this test. 0.0

GET /call?item= CCN1C(=S)N(CC)C2C1NN=C1SC(c3ccccc3)=CC(=O)N12 (stereo not drawn) returns the recorded outcome of this test. 0.0

GET /call?item= CC(C)(C)Nc1nc2c(OCCc3ccccc3)cccn2c1-c1ccccc1Cl returns the recorded outcome of this test. 1.0

GET /call?item= Nc1cc(-c2c[nH]c3ccc(Cl)cc23)nc2cc(-c3c[nH]c4ccc(Cl)cc34)nn12 returns the recorded outcome of this test. 0.0

GET /call?item= OC1CCN(CCCOc2c3ccc(Cl)cc3nc3c2oc2ccccc23)CC1 returns the recorded outcome of this test. 1.0

GET /call?item= O=C(CCCN1C(=O)/C(=C/c2ccccc2F)SC1=S)N1CCOCC1 returns the recorded outcome of this test. 0.0

GET /call?item= Cc1ccccc1NC(=O)/C=C/c1ccc(OCCOc2ccc3c(C)cc(=O)oc3c2)cc1 returns the recorded outcome of this test. 0.0

GET /call?item= O=C(Nc1nc2ccc(O)cc2s1)c1cccc(C(F)(F)F)c1 returns the recorded outcome of this test. 0.0

---

Would you mind telling me the reported growth of each entry?
System: HCC-2998 colon
Experiment: NCI-60 one-dose screen, 48 h (100 = growth as untreated, 0 = no growth, -100 = all killed)
Details: 10 µM unless noted
Experimental: Growth inhibition of the HCC-2998 human tumor cell line is measured as a screen for anti-cancer activity. Cells are grown in 96 well plates and exposed to the test compound for 48 hours. Compounds are tested at a single concentration, which is 10^-5 M for most compounds. The reported endpoint is percent growth (GI% or GIPRCNT), where numbers from 0 - 100% represent growth inhibition, and numbers from -100% - 0 represent cell death. For example, a value of 40 represents 60% growth inhibition. […]
About 83,000 compounds went through this panel and 20% of them were active in at least one assay; those are over-represented in the sample as a whole. Activity calls are given as the source filed them. Rule for the calls: active = growth percent below 10; inactive = the rest.

// solved cases for growth follow
{"Molecule": "O=c1[nH]c2ccccc2cc1CSc1ccccc1Nc1nccc(-c2ccc(C(F)(F)F)cc2)n1", "Target of assay": "HCC-2998 colon", "growth": "90.4% (inactive)"}
{"Molecule": "COc1ccc(/C=C/C(=O)c2ccc(NC(=O)CSc3nnc(-c4ccc5nc(-c6ccc(Cl)cc6)[nH]c5c4)o3)cc2)cc1", "Target of assay": "HCC-2998 colon", "growth": "118% (inactive)"}

List reported growth for each of these molecules:
1. Clc1ccc2c(NCCCn3ccnc3)c3oc4ccc(Cl)cc4c3nc2c1
2. Cc1cc(=O)oc2cc(OCCCOc3ccc(/C=C/C(=O)Nc4ccc(Cl)cc4)cc3)ccc12
3. Cc1sc2nc(NCc3ccccc3Cl)[nH]c(=O)c2c1C
4. CN(C)CCCNc1c2ccc(Cl)cc2nc2c1oc1ccc(Cl)cc12
5. N#Cc1c(-c2ccc(Cl)cc2)nc(SCc2ccc(F)cc2)nc1N1CCNCC1

1: 79% (inactive); 2: 69.6% (inactive); 3: 115% (inactive); 4: -85.1% (active); 5: -31.8% (active)

---

system: T-47D breast; assay: NCI-60 one-dose screen, 48 h; conditions: 10 µM unless noted
The panel holds about 83,000 compounds, 20% with a hit somewhere; the sample as a whole holds those more often. The source made the active and inactive calls. How the source made its calls: active means growth percent below 10; inactive means the rest.
Respond using exactly one of the listed classes: label 1 = active, label 0 = inactive

{"Compound": "CCN1C(=S)N(c2ccccc2)C2NC(=O)N(/N=C/C=C/c3ccccc3OC)C21 (configuration not stated)", "Target of assay": "T-47D breast", "Assigned class": "label 0"}
{"Compound": "Nc1nc(N)c2c(n1)NC(c1ccc(C(F)(F)F)cc1)CC(c1ccc(Nc3nc(NCCO)nc(Nc4ccc(Cl)cc4)n3)cc1)=N2 (configuration not stated)", "Target of assay": "T-47D breast", "Assigned class": "label 0"}

GET /call?item= O=C1Nc2ccccc2Oc2ccc(S(=O)(=O)CC3CO3)cc21 (configuration not stated) returns the recorded outcome of this test. label 0

GET /call?item= COc1cccc(N2CCN(c3ncnc4c3[nH]c3ccc(F)cc34)C[C@@H]2C)c1 returns the recorded outcome of this test. label 1

GET /call?item= Cn1cc(-c2cc(N)n3nc(-c4cn(C)c5ccc(Br)cc45)cc3n2)c2cc(Br)ccc21 returns the recorded outcome of this test. label 0

GET /call?item= CC1=C(C)C(=O)C(Nc2cccc(C(F)(F)F)c2)=C(Cl)C1=O returns the recorded outcome of this test. label 1

GET /call?item= CC(C)(C)Nc1nc2c(OCCc3ccccc3)cccn2c1-c1cccc(F)c1 returns the recorded outcome of this test. label 1

GET /call?item= C/C(=N\NC(N)=O)c1c(O)sc(=O)[nH]c1=O returns the recorded outcome of this test. label 0

GET /call?item= C#C[C@]1(O)CC[C@H]2[C@@H]3CC=C4c5sc(-c6ccc(F)cn6)nc5CC[C@]4(C)[C@H]3CC[C@@]21C returns the recorded outcome of this test. label 0

GET /call?item= COC(=O)C1CCCN(S(=O)(=O)/N=C2\NC(=O)NC2=C(Cl)Cl)C1 (configuration not stated) returns the recorded outcome of this test. label 0

GET /call?item= CCOC(=O)c1csc(NC(=O)CSc2nc3sc4c(c3c(=O)n2-c2ccc(Cl)cc2)CCCC4)n1 returns the recorded outcome of this test. label 0

GET /call?item= COc1cc(/C=C/C(=O)c2cc(OC)c(OC)c(OC)c2)ccc1OCc1ccc(F)cc1 returns the recorded outcome of this test. label 0

---

tested on: SK-MEL-2 melanoma; assay: NCI-60 one-dose screen, 48 h (100 = growth as untreated, 0 = no growth, -100 = all killed); settings: 10 µM unless noted
About 83,000 compounds went through this panel and 20% of them were active in at least one assay; those are over-represented in the sample as a whole.
Would you mind telling me the reported growth of each entry?
Answers are plain numbers, in %.

// solved cases for growth follow
{"Query smiles": "COc1cc(/C=C/C(=O)c2ccc(C(F)(F)F)cc2)ccc1Oc1nc(NCCO)nc(N2CCOCC2)n1", "Quantity name": "growth", "Readout number": 98.8}
{"Query smiles": "CN(C)S(=O)(=O)c1oc(-c2ccccc2)nc1C#N", "Quantity name": "growth", "Readout number": 110}
{"Query smiles": "COc1ccccc1C(=O)CSc1nc(Nc2ccc(S(N)(=O)=O)cc2)c2ccccc2n1", "Quantity name": "growth", "Readout number": 98.1}
{"Query smiles": "C#Cc1nc(C2=C(C)/C(=N/OCc3ccccc3)CC2)cs1", "Quantity name": "growth", "Readout number": 98.7}
{"Query smiles": "Clc1ccc(Cc2nnc3sc(-c4cccnc4)nn23)cc1", "Quantity name": "growth", "Readout number": 113}

Here's the next entry for you.
Form field, growth with SK-MEL-2 melanoma, item Clc1ccc2c(OCCCN3CCOCC3)c3oc4ccccc4c3nc2c1 : 78.2
